src = patent US10544143B2

- System Under Test: human TLR7 (Homo sapiens (Human))
- Sequence (Q9NYK1 27-1049): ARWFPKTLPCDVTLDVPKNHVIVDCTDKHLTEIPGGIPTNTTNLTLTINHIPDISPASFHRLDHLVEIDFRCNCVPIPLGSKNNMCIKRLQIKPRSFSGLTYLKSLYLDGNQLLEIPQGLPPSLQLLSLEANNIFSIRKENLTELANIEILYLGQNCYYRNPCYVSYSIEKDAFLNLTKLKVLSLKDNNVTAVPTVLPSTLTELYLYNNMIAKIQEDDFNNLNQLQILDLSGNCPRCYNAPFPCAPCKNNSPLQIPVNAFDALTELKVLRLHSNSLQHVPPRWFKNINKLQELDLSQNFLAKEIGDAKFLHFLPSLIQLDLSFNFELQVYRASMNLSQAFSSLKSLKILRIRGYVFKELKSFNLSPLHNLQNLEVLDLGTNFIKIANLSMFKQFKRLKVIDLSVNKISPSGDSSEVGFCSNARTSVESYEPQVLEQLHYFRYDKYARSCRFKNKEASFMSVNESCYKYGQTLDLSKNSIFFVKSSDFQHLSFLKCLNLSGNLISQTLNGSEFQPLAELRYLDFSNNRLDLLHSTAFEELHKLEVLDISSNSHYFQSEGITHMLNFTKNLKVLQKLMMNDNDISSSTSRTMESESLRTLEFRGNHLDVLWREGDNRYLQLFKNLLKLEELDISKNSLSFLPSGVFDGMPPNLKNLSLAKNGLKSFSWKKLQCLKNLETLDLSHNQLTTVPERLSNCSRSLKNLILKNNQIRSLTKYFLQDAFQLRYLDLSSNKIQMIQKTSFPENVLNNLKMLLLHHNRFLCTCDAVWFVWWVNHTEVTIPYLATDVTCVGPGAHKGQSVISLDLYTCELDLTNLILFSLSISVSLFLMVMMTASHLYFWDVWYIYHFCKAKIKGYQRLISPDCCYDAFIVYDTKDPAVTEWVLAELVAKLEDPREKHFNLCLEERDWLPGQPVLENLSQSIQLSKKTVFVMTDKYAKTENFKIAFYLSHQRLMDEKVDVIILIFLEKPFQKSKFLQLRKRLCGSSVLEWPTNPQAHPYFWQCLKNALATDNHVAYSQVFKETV
- Assay Protocol: TLR7 inhibition reporter assay (HEK-Blue SEAP)
- Assay type: cell-based
- Condition Info: HEK-Blue cells overexpressing human TLR7, gardiquimod 7.5 μM stimulation, SEAP reporter
Quantity: pIC50
Scale explanation: pIC50 corresponds to minus log10 of a concentration expressed in moles per litre.

**Q:** Under human TLR7 (Homo sapiens (Human)): report pIC50 of Cc1c(-c2[nH]c3ccc(N4CCC(N(C)CC5CC5)CC4)nc3c2C(C)C)cn2ncnc2c1C [Example 58] .
**A:** 8.89

**Q:** State, for human TLR7 (Homo sapiens (Human)), measured pIC50 of the compound listed here: CNC1CCC(c2ccc3[nH]c(-c4cn(CC#N)c5ncccc45)c(C(C)C)c3n2)CC1 (stereo not drawn) [Example 263]
**A:** 8.21

**Q:** Give pIC50 for this entry on human TLR7 (Homo sapiens (Human)): CNC1CCC(c2ccc3[nH]c(-c4cn5ncnc5c(C)c4C)c(C(C)C)c3n2)CC1 (single isomer, unassigned) [Example 367]
**A:** 8.82

**Q:** Enter pIC50 (test system human TLR7 (Homo sapiens (Human))) for Cc1c(-c2[nH]c3ccc(N4CC(NC5CCOCC5)C4)nc3c2C(C)C)cn2ncnc2c1C [Example 1]
**A:** 7.70

**Q:** Write down the reported pIC50 (system: human TLR7 (Homo sapiens (Human))) of COc1cc(-c2[nH]c3ccc(N4CCN(C(=O)CCN(C)C)CC4)nc3c2C(C)C)cn2ncnc12 [Example 99]
**A:** 9.29

**Q:** State pIC50 on human TLR7 (Homo sapiens (Human)). Entry: COc1cc(-c2[nH]c3ccc(N4CCN(CCCS(C)(=O)=O)CC4)nc3c2C(C)C)cn2ncnc12 [Example 132]
**A:** 8.55

**Q:** // fetch pIC50 for COc1cc(-c2[nH]c3ccc(C4CCC(NCc5cnco5)CC4)nc3c2C(C)C)cn2ncnc12 (stereo not drawn) [Example 206] ; system: human TLR7 (Homo sapiens (Human))
**A:** 8.02

**Q:** Identify measured pIC50 obtained with human TLR7 (Homo sapiens (Human)) for CNC1CCC(c2ccc3[nH]c(-c4cn(CCO)c5ncccc45)c(C(C)C)c3n2)CC1 (stereo not drawn) [Example 299] .
**A:** 8.00

**Q:** Under human TLR7 (Homo sapiens (Human)), report pIC50 for CC(C)c1c(-c2cn(C)c3ncccc23)[nH]c2ccc(C3CCC(NCC(C)(C)S(C)(=O)=O)CC3)nc12 (stereo not drawn) [Example 285]
**A:** 8.44

**Q:** Recall the reported pIC50 of COc1cc(-c2[nH]c3cc(F)c(C4CCC(N5CC6(COC6)C5)CC4)nc3c2C(C)C)cn2ncnc12 (stereo not drawn) [Example 343] when tested on human TLR7 (Homo sapiens (Human)).
**A:** 9.72

**Q:** Fill: pIC50 (human TLR7 (Homo sapiens (Human))) for this compound COc1cc(-c2[nH]c3cc(C)c(C4CCC(NC5COC5)CC4)nc3c2C(C)C)cn2ncnc12 (stereo not drawn) [Example 316]
**A:** 8.85

**Q:** Please report the measured pIC50 for Cc1c(-c2[nH]c3ccc(N4CCN(CC(C)(C)O)CC4)nc3c2C(C)C)cn2ncnc2c1C [Example 105] tested on human TLR7 (Homo sapiens (Human)).
**A:** 8.41

**Q:** For human TLR7 (Homo sapiens (Human)), give pIC50 of the listed compound: COc1cc(-c2[nH]c3ccc(C4CCC(N5CCCC5)CC4)nc3c2C(C)C)cn2ncnc12 (stereo not drawn) [Example 199]
**A:** 9.80

**Q:** Write down the reported pIC50 (system: human TLR7 (Homo sapiens (Human))) of Cc1c(-c2[nH]c3ccc(C4CCC(N5CCC(F)(F)CC5)CC4)nc3c2C(C)C)cn2ncnc2c1C (stereo not drawn) [Example 381]
**A:** 8.43

**Q:** State measured pIC50 of the compound COc1cc(-c2[nH]c3ccc(C4CCC(N5CCCC5)CC4)nc3c2C(C)C)cn2ncnc12 (stereo not drawn) [Example 192] with human TLR7 (Homo sapiens (Human)).
**A:** 8.51

**Q:** Output reported pIC50 of the compound Cc1c(-c2[nH]c3ccc(N4CCN(C(=O)CNC5CCC5)CC4)nc3c2C(C)C)cn2ncnc2c1C [Example 156] on human TLR7 (Homo sapiens (Human)).
**A:** 8.82

**Q:** Report measured pIC50 on human TLR7 (Homo sapiens (Human)); entry: Cc1c(-c2[nH]c3ccc(N4CC(NCC(=O)N(C)C)C4)nc3c2C(C)C)cn2ncnc2c1C [Example 26]
**A:** 5.75

**Q:** Fetch value of pIC50 on human TLR7 (Homo sapiens (Human)) for Cc1cc(-c2[nH]c3cc(F)c(C4CCNCC4)nc3c2C(C)C)cn2ncnc12 [Example 11] .
**A:** 8.77

**Q:** Enter measured pIC50, system human TLR7 (Homo sapiens (Human)), for the compound shown: Cc1c(-c2[nH]c3ccc(N4CCNC(=O)C4)nc3c2C(C)C)cn2ncnc2c1C [Example 150]
**A:** 7.92

**Q:** Tell me pIC50 of COc1cc(-c2[nH]c3cc(C)c(C4CCC(NCC5(C)COC5)CC4)nc3c2C(C)C)cn2ncnc12 (stereo not drawn) [Example 312] when tested on human TLR7 (Homo sapiens (Human)).
**A:** 9.59

**Q:** Please tell me the measured pIC50 for COc1cc(-c2[nH]c3ccc(N4CCN(C5CCN(C(C)=O)CC5)CC4)nc3c2C(C)C)cn2ncnc12 [Example 121] ; system: human TLR7 (Homo sapiens (Human)).
**A:** 8.47

**Q:** Find the measured pIC50 of CC(C)c1c(-c2cc(CO)c3ncnn3c2)[nH]c2ccc(C3CCC(NCc4c[nH]nn4)CC3)nc12 (stereo not drawn) [Example 218] with human TLR7 (Homo sapiens (Human)) as test system.
**A:** 8.07

**Q:** With human TLR7 (Homo sapiens (Human)) as the test system, provide measured pIC50 for this compound: COCCN(C)C1CCC(c2ccc3[nH]c(-c4cc(OC)c5ncnn5c4)c(C(C)C)c3n2)CC1 (stereo not drawn) [Example 198]
**A:** 9.00

**Q:** Enter recorded pIC50 with human TLR7 (Homo sapiens (Human)) for CCN(C)C1CCC(c2ccc3[nH]c(-c4cn5ncnc5c(C)c4C)c(C(C)C)c3n2)CC1 (stereo not drawn) [Example 388] here.
**A:** 9.06

**Q:** Report measured pIC50 on human TLR7 (Homo sapiens (Human)); entry: CCN(CC)C1CCN(c2ccc3[nH]c(-c4cn5ncnc5c(C)c4C)c(C(C)C)c3n2)CC1 [Example 70]
**A:** 8.64

**Q:** Recall the reported pIC50 of CC(C)c1c(-c2cc(CO)c3ncnn3c2)[nH]c2ccc(N3CCC(NCC(=O)N(C)C)CC3)nc12 [Example 85] on human TLR7 (Homo sapiens (Human)) and write it down.
**A:** 8.74

**Q:** Give the observed pIC50 of Cc1c(-c2[nH]c3ccc(C4CCC(N5CCC(F)(F)CC5)CC4)nc3c2C(C)C)cn2ncnc2c1C (stereo not drawn) [Example 385] for human TLR7 (Homo sapiens (Human)).
**A:** 7.66

**Q:** Give measured pIC50 for Cc1c(-c2[nH]c3ccc(N4CCC(N(Cc5c[nH]nn5)Cc5c[nH]nn5)CC4)nc3c2C(C)C)cn2ncnc2c1C [Example 48] (human TLR7 (Homo sapiens (Human))).
**A:** 8.13

**Q:** Given COc1cc(-c2[nH]c3cc(F)c(C4CCC(NC5COC5)CC4)nc3c2C(C)C)cn2ncnc12 (stereo not drawn) [Example 346] , report its pIC50 on human TLR7 (Homo sapiens (Human)).
**A:** 9.49

**Q:** Fill in pIC50 for Cc1c(-c2[nH]c3ccc(C4CCC(N(C5CC5)C5COC5)CC4)nc3c2C(C)C)cn2cnnc2c1C (stereo not drawn) [Example 239] tested with human TLR7 (Homo sapiens (Human)).
**A:** 6.97
